# assay.method.text: M. tuberculosis growth inhibition, HTS (AID 449762);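 further: bacterial growth assessed after seven days of incubation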
# stated.conditions: M. tuberculosis H37Rv growth inhibition, 7H9 media; at 25 µM; stronger effect = higher value
Screen size: about 330,000 compounds; about 1,900 (0.58%) were called active. Roughly 4% stayed inconclusive and do not appear here. A selection follows. Results with a measured potency or affinity are listed apart.
measured.quantity: inhibition (%)

{"compound": "CC1C(=O)N2CCCc3cc(NC(=O)C(=O)NCCc4ccc(F)cc4)cc1c32 (stereo not given)", "measured.quantity": "inhibition", "numeric.value": 39.4}
{"compound": "COC(=O)CN(c1ccc2c(c1)OCCO2)S(=O)(=O)c1ccccc1", "measured.quantity": "inhibition", "numeric.value": -5.06}
{"compound": "COc1ccc(C(=O)NCC(c2ccc3c(c2)OCO3)N2CCN(c3ccc(OC)cc3)CC2)cc1 (stereo not given)", "measured.quantity": "inhibition", "numeric.value": 7.52}
{"compound": "C=C[C@@H]1c2cc(C)ccc2N(S(=O)(=O)c2ccc(C)cc2)[C@H](c2ccccc2)C1(C#N)C#N", "measured.quantity": "inhibition", "numeric.value": -12.5}
{"compound": "CCOc1ccccc1OCC(=O)OCC(=O)c1c(N)n(CC(C)C)c(=O)n(C)c1=O", "measured.quantity": "inhibition", "numeric.value": 0.88}
{"compound": "c1ccc(-c2nc(-c3ccncc3)n[nH]2)nc1", "measured.quantity": "inhibition", "numeric.value": -0.34}
{"compound": "O=C(Cc1cccc(NC(=O)C2CCN(C(=O)C3CCCC3)CC2)c1)Nc1cccc(C(=O)N2CCCC2)c1", "measured.quantity": "inhibition", "numeric.value": -2.63}
{"compound": "O=C(NC(NC(=S)Nc1cc(Cl)ccc1Cl)C(Cl)(Cl)Cl)c1ccco1 (stereo not given)", "measured.quantity": "inhibition", "numeric.value": 11.3}
{"compound": "CC(CC(=O)Nc1ccc(-c2ccno2)cc1)n1cccn1 (stereo not given)", "measured.quantity": "inhibition", "numeric.value": 21.4}
{"compound": "CCOC(=O)c1ccc(Nc2ccc([N+](=O)[O-])cn2)cc1", "measured.quantity": "inhibition", "numeric.value": -5.22}
